# test_details: self-splicing fitness, log relative to wild type (ln ratio); higher = more splicing; Tetrahymena group I intron in knt gene, E. coli kanamycin selection, DiMSum; sequences stand for … in CUCUCU…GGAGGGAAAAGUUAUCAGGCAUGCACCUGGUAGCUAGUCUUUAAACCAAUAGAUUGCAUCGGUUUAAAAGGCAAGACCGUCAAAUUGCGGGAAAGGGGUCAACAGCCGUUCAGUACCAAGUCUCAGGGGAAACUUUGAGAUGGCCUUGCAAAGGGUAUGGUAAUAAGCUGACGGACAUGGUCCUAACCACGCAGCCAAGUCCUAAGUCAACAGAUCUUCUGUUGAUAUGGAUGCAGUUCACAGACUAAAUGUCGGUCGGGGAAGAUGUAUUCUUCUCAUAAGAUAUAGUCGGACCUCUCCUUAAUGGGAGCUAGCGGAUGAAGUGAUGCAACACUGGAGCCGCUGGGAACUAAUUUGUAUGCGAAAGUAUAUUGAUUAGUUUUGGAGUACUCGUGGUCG;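 also: selection with 25 µg/mL kanamycin versus none on LB agar overnight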
# test_conditions: 30 °C
measured_metric: self-splicing fitness (ln)
Answer field: number only, no words.

Here are 5 sequences together with their reported answers.
**Query** Returns the measured self-splicing fitness (ln) for the input sequence. Input: "AAUUAGCAAUAUUACGGCCA"
**Result** -0.657

**Query** Returns the measured self-splicing fitness (ln) for the input sequence. Input: "GGAUAGCAAUAUUACGCAAU"
**Result** -1.83

**Query** Returns the measured self-splicing fitness (ln) for the input sequence. Input: "GCCUAGCAAUAUUACGCAUC"
**Result** -0.219

**Query** Returns the measured self-splicing fitness (ln) for the input sequence. Input: "UGCUAGCAAUAUUACGGGAG"
**Result** -2.68

**Query** Returns the measured self-splicing fitness (ln) for the input sequence. Input: "CACUAGCAAUAUUACGCGAC"
**Result** -3.04

More entries:
**Query** Returns the measured self-splicing fitness (ln) for the input sequence. Input: "CCGUAGCAAUAUUACGAGGG"
**Result** -3.25

**Query** Returns the measured self-splicing fitness (ln) for the input sequence. Input: "ACGAAGCAAUAUUACGAAUG"
**Result** -1.51

**Query** Returns the measured self-splicing fitness (ln) for the input sequence. Input: "CUAGAGCAAUAUUACGCUCC"
**Result** -2.45

====

# test_details: self-splicing fitness, log relative to wild type (ln ratio); higher = more splicing; Tetrahymena group I intron in knt gene, E. coli kanamycin selection, DiMSum; sequences stand for … in CUCUCU…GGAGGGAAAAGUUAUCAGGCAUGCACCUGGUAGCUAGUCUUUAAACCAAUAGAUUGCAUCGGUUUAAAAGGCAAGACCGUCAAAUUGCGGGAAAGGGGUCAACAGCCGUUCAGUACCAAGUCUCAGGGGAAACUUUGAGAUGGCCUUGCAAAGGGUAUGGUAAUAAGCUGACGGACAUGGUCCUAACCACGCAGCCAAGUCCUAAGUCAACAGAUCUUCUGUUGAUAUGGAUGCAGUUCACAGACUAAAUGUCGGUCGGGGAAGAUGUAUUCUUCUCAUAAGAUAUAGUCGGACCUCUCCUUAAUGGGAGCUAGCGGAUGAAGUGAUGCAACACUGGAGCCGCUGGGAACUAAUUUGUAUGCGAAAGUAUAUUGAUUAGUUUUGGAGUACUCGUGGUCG
# test_conditions: 37 °C
measured_metric: self-splicing fitness (ln)
Answer field: number only, no words.

Here are 6 sequences together with their reported answers.
**Query** Returns the measured self-splicing fitness (ln) for the input sequence. Input: "GGUAAGCAAUAUUACGUUGG"
**Result** -1.99

**Query** Returns the measured self-splicing fitness (ln) for the input sequence. Input: "GAGAAGCAAUAUUACGUUCC"
**Result** -1.65

**Query** Returns the measured self-splicing fitness (ln) for the input sequence. Input: "AAGGAGCAAUAUUACGGGAC"
**Result** -2.36

**Query** Returns the measured self-splicing fitness (ln) for the input sequence. Input: "ACAAAGCAAUAUUACGUGAG"
**Result** -0.4

**Query** Returns the measured self-splicing fitness (ln) for the input sequence. Input: "UGCGAGCAAUAUUACGCUAA"
**Result** -2.48

**Query** Returns the measured self-splicing fitness (ln) for the input sequence. Input: "UUCCAGCAAUAUUACGAUAU"
**Result** -0.723

More entries:
**Query** Returns the measured self-splicing fitness (ln) for the input sequence. Input: "UCCGAGCAAUAUUACGAUAG"
**Result** -2.22

**Query** Returns the measured self-splicing fitness (ln) for the input sequence. Input: "CACCAGCAAUAUUACGAUCU"
**Result** -2.43

====

The following sequences are listed with their measured self-splicing fitness (ln) values.
# test_details: self-splicing fitness, log relative to wild type (ln ratio); higher = more splicing; Tetrahymena group I intron in knt gene, E. coli kanamycin selection, DiMSum; sequences stand for … in CUCUCU…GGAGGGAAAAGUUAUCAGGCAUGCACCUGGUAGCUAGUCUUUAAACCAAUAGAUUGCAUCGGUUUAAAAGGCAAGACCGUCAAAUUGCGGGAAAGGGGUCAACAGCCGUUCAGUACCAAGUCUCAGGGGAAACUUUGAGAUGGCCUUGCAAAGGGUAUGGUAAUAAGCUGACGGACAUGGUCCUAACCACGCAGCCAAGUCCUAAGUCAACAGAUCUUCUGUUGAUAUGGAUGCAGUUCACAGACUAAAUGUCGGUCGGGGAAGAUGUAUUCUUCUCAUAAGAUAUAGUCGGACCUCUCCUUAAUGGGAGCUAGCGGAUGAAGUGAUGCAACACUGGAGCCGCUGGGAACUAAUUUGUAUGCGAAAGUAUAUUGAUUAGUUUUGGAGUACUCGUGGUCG
# test_conditions: 37 °C
Answer field: number only, no words.

**Query** Returns the measured self-splicing fitness (ln) for the input sequence. Input: "ACUUAGCAAUAUUACGCGAG"
**Result** -1.76

**Query** Returns the measured self-splicing fitness (ln) for the input sequence. Input: "ACCAAGCAAUAUUACGGCAG"
**Result** -1.9

**Query** Returns the measured self-splicing fitness (ln) for the input sequence. Input: "GACGAGCAAUAUUACGACUC"
**Result** 0.797

**Query** Returns the measured self-splicing fitness (ln) for the input sequence. Input: "GUCUAGCAAUAUUACGUCUG"
**Result** -1.51

**Query** Returns the measured self-splicing fitness (ln) for the input sequence. Input: "CAGAAGCAAUAUUACGCUUG"
**Result** -2.99

**Query** Returns the measured self-splicing fitness (ln) for the input sequence. Input: "UAUCAGCAAUAUUACGCCCU"
**Result** -0.333

**Query** Returns the measured self-splicing fitness (ln) for the input sequence. Input: "CGAUAGCAAUAUUACGUGUC"
**Result** -2.64

**Query** Returns the measured self-splicing fitness (ln) for the input sequence. Input: "CUCCAGCAAUAUUACGCAUG"
**Result** -1.06

**Query** Returns the measured self-splicing fitness (ln) for the input sequence. Input: "CGGCAGCAAUAUUACGCCCC"
**Result** -0.44

**Query** Returns the measured self-splicing fitness (ln) for the input sequence. Input: "AAUCAGCAAUAUUACGGCGA"
**Result** 0.557

**Query** Returns the measured self-splicing fitness (ln) for the input sequence. Input: "UCUUAGCAAUAUUACGCCAU"
**Result** -2.26

**Query** Returns the measured self-splicing fitness (ln) for the input sequence. Input: "GCGCAGCAAUAUUACGUUAC"
**Result** -1.12

**Query** Returns the measured self-splicing fitness (ln) for the input sequence. Input: "CCUUAGCAAUAUUACGCCAU"
**Result** -1.57

**Query** Returns the measured self-splicing fitness (ln) for the input sequence. Input: "AUACAGCAAUAUUACGCUAA"
**Result** -1.01

**Query** Returns the measured self-splicing fitness (ln) for the input sequence. Input: "CGUAAGCAAUAUUACGAAUU"
**Result** -2.17

====

The following sequences are listed with their measured self-splicing fitness (ln) values.
# test_details: self-splicing fitness, log relative to wild type (ln ratio); higher = more splicing; Tetrahymena group I intron in knt gene, E. coli kanamycin selection, DiMSum; sequences stand for … in CUCUCU…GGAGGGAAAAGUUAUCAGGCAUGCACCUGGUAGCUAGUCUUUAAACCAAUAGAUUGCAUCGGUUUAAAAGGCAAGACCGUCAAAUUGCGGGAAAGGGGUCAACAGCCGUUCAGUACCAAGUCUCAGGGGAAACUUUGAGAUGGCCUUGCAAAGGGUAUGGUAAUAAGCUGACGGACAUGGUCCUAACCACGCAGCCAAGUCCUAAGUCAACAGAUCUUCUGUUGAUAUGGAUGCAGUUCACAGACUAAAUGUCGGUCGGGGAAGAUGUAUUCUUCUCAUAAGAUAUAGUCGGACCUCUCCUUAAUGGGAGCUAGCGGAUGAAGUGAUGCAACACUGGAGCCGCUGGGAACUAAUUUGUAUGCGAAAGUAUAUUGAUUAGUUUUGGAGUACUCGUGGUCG
# test_conditions: 30 °C
Answer field: number only, no words.

**Query** Returns the measured self-splicing fitness (ln) for the input sequence. Input: "CAAUAGCAAUAUUACGCCGG"
**Result** 0.0303

**Query** Returns the measured self-splicing fitness (ln) for the input sequence. Input: "GAUCAGCAAUAUUACGGCGA"
**Result** -0.479

**Query** Returns the measured self-splicing fitness (ln) for the input sequence. Input: "UUCCAGCAAUAUUACGCCUU"
**Result** -2.28

**Query** Returns the measured self-splicing fitness (ln) for the input sequence. Input: "UGCAAGCAAUAUUACGCUAG"
**Result** -2.55

**Query** Returns the measured self-splicing fitness (ln) for the input sequence. Input: "GCCUAGCAAUAUUACGGAUA"
**Result** -1.01

**Query** Returns the measured self-splicing fitness (ln) for the input sequence. Input: "UACAAGCAAUAUUACGCCCC"
**Result** -2.04

**Query** Returns the measured self-splicing fitness (ln) for the input sequence. Input: "CAUGAGCAAUAUUACGACUU"
**Result** -3.95

**Query** Returns the measured self-splicing fitness (ln) for the input sequence. Input: "AACUAGCAAUAUUACGAGCG"
**Result** -0.883

More entries:
**Query** Returns the measured self-splicing fitness (ln) for the input sequence. Input: "GGAAAGCAAUAUUACGACUU"
**Result** -0.349

**Query** Returns the measured self-splicing fitness (ln) for the input sequence. Input: "GUCCAGCAAUAUUACGUAUA"
**Result** -1.37
